- Tgt: Tyrosine-protein phosphatase non-receptor type 2 (Homo sapiens, UniProt P17706)
- Sequence (P17706 whole entry): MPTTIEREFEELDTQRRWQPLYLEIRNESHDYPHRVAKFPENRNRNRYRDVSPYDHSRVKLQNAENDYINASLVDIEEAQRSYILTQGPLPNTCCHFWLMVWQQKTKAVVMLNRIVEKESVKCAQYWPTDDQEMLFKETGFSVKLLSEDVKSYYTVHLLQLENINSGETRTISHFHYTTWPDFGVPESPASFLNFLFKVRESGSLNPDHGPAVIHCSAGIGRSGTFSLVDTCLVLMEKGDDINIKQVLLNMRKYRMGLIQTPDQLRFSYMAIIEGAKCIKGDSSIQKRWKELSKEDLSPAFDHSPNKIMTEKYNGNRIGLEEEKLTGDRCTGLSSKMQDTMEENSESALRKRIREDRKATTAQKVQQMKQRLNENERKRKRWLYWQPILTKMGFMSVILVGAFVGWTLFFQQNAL
Threshold-based label: IC50 under 30 µM gives 1, IC50 not under 30 µM gives -1.

Smiles Input	Class Label
CS(=O)(=O)Nc1ccc2oc(-c3ccccc3)nc2c1	-1
O=S(=O)(Nc1ccc(-c2nc3ccccc3o2)cc1)c1ccc(O)cc1	-1
O=S(=O)(Nc1ccc2oc(-c3ccccc3)nc2c1)c1cccc(O)c1	-1
CCCS(=O)(=O)Nc1ccc(-c2nc3cc(NS(=O)(=O)CCC)ccc3o2)cc1	-1
O=S(=O)(Nc1ccc2oc(-c3ccccc3)nc2c1)c1cccc(F)c1	-1
O=S(=O)(Nc1ccc(-c2nc3cc(NS(=O)(=O)c4cccc(C(F)(F)F)c4)ccc3o2)cc1)c1cccc(C(F)(F)F)c1	1
N#Cc1cccc(S(=O)(=O)Nc2ccc(-c3nc4cc(NS(=O)(=O)c5cccc(C#N)c5)ccc4o3)cc2)c1	-1
O=S(=O)(Cc1ccccc1)Nc1ccc(-c2nc3cc(NS(=O)(=O)Cc4ccccc4)ccc3o2)cc1	-1
Nc1ccccc1S(=O)(=O)Nc1ccc(-c2nc3cc(NS(=O)(=O)c4ccccc4N)ccc3o2)cc1	1
O=S(=O)(Nc1ccc2oc(-c3ccccc3)nc2c1)c1ccccc1C(F)(F)F	-1
N#Cc1ccccc1S(=O)(=O)Nc1ccc(-c2nc3cc(NS(=O)(=O)c4ccccc4C#N)ccc3o2)cc1	-1
O=S(=O)(Nc1ccc(-c2nc3cc(NS(=O)(=O)c4ccc(O)cc4)ccc3o2)cc1)c1ccc(O)cc1	-1
O=S(=O)(Nc1ccc(-c2nc3ccccc3o2)cc1)c1cccc(O)c1	-1
O=S(=O)(Nc1ccc(-c2nc3ccccc3o2)cc1)c1ccc(Cl)cc1	-1
O=S(=O)(Nc1ccc2oc(-c3ccc(NS(=O)(=O)c4ccc(Cl)s4)cc3)nc2c1)c1ccc(F)c(C(F)(F)F)c1	1
O=S(=O)(Nc1ccc(-c2nc3cc(NS(=O)(=O)c4ccc(Br)cc4)ccc3o2)cc1)c1ccc(Br)cc1	1
O=S(=O)(Nc1ccc2oc(-c3ccc(NS(=O)(=O)c4ccc(Cl)s4)cc3)nc2c1)c1ccc(Cl)c(Cl)c1	1
O=S(=O)(Nc1ccc2oc(-c3ccccc3)nc2c1)c1ccccc1	-1
Cc1ccccc1S(=O)(=O)Nc1ccc2oc(-c3ccccc3)nc2c1	1
O=S(=O)(Nc1ccc(-c2nc3ccccc3o2)cc1)c1ccc(Cl)s1	-1
O=[N+]([O-])c1cc(S(=O)(=O)Nc2ccc3oc(-c4ccccc4)nc3c2)ccc1Cl	-1
O=S(=O)(Nc1ccc2oc(-c3ccccc3)nc2c1)c1ccc(C(F)(F)F)cc1	-1
O=S(=O)(Nc1ccc(-c2nc3cc(NS(=O)(=O)c4cccc(Cl)c4)ccc3o2)cc1)c1cccc(Cl)c1	1
O=S(=O)(Nc1ccc(-c2nc3cc(NS(=O)(=O)c4cccc5nsnc45)ccc3o2)cc1)c1cccc2nsnc12	1

The reported measurements were obtained from ChEMBL document CHEMBL4387722.
